pIC50: −log10 of the molar value.
This document collects pIC50 values reported for Protein kinase C eta type (Homo sapiens, UniProt P24723).
resultType: pIC50

molecule	resultType	valueMeasured
O=C(N[C@H]1C[C@H](O)C[C@H]1OC(=O)c1cc(O)c(C(=O)c2c(O)cccc2C(=O)O)c(O)c1)c1ccc(O)cc1	pIC50	8.40
O=C(N[C@H]1C[C@H](CO)C[C@H]1OC(=O)c1cc(O)c(C(=O)c2c(O)cccc2C(=O)O)c(O)c1)c1ccc(O)cc1	pIC50	8.70
N[C@@H]1C[C@H](NC(=O)c2ccc(O)cc2)[C@H](OC(=O)c2cc(O)c(C(=O)c3c(O)cccc3C(=O)O)c(O)c2)C1	pIC50	8.70
O=C(N[C@H]1C[C@@H](O)C[C@H]1OC(=O)c1cc(O)c(C(=O)c2c(O)cccc2C(=O)O)c(O)c1)c1ccc(O)cc1.O=C(N[C@H]1C[C@H](O)C[C@H]1OC(=O)c1cc(O)c(C(=O)c2c(O)cccc2C(=O)O)c(O)c1)c1ccc(O)cc1 (single isomer, unassigned)	pIC50	8.52

---

Target protein (sequence): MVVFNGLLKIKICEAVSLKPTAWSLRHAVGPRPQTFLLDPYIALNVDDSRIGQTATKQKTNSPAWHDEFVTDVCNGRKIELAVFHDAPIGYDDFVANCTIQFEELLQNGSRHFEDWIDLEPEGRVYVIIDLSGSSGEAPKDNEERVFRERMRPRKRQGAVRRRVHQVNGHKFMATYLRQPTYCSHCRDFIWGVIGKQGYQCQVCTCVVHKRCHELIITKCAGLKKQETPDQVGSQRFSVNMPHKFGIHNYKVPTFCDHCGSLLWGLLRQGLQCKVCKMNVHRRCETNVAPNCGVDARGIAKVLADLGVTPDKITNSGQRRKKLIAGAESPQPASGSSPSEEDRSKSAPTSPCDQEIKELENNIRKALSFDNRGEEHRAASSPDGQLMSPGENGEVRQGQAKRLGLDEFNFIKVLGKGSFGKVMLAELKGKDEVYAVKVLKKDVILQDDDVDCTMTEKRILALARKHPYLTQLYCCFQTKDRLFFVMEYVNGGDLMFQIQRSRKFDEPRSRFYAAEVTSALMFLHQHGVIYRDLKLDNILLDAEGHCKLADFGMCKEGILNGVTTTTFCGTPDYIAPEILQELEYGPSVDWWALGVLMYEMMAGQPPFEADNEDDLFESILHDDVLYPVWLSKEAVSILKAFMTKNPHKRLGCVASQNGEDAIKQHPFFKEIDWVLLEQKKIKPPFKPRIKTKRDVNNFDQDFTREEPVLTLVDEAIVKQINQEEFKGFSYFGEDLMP
Measured IC50 values are reported for all entries that follow.
resultType: IC50

                            molecularstring  valuemeasured
0  N[C@@H]1C[C@H](NC(=O)c2ccc(O)cc2)[C@H](OC(=O)c2cc(O)c(C(=O)c3c(O)cccc3C(=O)O)c(O)c2)C1        0.01 µM
1  O=C(N[C@H]1C[C@@H](CO)C[C@H]1OC(=O)c1cc(O)c(C(=O)c2c(O)cccc2C(=O)O)c(O)c1)c1ccc(O)cc1        0.26 µM
2  NC[C@H]1C[C@H](NC(=O)c2ccc(O)cc2)[C@H](OC(=O)c2cc(O)c(C(=O)c3c(O)cccc3C(=O)O)c(O)c2)C1        0.03 µM
